Values from patent US20250186433A1

- TEST PROTOCOL: Pharmacokinetic profile in mice (oral and iv)
- Type: in vivo
- CONDITION DESCRIPTION: mouse, plasma, oral 5 mg/kg, iv 1 mg/kg
MEASURED METRIC: clearance (mL/min/kg)
The response must be a number in mL/min/kg with no trailing unit.

Item: COc1ccc(N2N=C(C)C(C(=O)Nc3cccc(C(C)(F)F)c3)C2=O)cc1 (stereo not shown) | clearance: 0.59

###

- TESTED ON: ACSS2 (Homo sapiens, UniProt Q9NR19)
- Sequence (Q9NR19 whole entry): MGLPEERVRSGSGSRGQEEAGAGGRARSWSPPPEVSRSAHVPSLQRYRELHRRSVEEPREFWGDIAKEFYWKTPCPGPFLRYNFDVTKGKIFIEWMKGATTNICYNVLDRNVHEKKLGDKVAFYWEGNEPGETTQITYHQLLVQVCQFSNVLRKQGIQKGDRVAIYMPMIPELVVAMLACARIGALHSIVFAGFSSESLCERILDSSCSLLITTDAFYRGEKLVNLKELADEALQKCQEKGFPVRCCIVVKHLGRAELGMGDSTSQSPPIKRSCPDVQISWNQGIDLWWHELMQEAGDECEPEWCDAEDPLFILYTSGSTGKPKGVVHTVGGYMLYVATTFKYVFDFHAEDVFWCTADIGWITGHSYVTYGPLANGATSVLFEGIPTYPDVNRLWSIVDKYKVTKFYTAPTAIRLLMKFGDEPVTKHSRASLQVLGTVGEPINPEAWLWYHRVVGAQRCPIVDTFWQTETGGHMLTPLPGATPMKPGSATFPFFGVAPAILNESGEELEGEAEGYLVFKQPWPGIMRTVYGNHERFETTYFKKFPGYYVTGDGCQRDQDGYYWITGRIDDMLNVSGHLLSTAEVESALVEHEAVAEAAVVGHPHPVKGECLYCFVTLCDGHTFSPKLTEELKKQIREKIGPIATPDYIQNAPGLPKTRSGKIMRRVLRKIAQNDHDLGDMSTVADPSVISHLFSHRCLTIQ
- TEST PROTOCOL: biochemical
MEASURED METRIC: IC50

# lookup: COc1ccccc1Cc1cc(-c2ccccc2)cc(N2N=C(C)C(C(=O)Nc3cccc(C(C)(F)F)c3)C2=O)c1 (stereo not shown) [compound 467] on ACSS2 (Homo sapiens, UniProt Q9NR19), IC50 = 6 to 100 nM

###

- TESTED ON: AACS (Homo sapiens, UniProt Q86V21)
- Sequence (Q86V21 whole entry): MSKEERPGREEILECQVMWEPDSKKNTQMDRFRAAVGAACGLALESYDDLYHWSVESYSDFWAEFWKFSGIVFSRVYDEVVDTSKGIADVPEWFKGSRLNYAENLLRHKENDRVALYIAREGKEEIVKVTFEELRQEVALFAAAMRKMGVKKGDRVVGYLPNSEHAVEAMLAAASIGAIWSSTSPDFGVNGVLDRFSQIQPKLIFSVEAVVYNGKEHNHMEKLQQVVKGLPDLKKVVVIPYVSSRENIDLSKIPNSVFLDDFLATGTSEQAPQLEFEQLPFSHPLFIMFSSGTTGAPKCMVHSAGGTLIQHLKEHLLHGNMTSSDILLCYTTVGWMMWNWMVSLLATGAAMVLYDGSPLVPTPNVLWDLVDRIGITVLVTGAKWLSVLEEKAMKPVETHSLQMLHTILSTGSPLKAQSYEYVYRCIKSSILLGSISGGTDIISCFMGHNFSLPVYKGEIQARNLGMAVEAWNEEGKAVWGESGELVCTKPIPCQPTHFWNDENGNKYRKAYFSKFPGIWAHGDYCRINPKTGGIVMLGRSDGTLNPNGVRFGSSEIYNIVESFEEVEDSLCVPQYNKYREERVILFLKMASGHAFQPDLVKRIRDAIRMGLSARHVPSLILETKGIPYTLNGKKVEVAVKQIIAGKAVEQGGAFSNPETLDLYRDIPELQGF
- TEST PROTOCOL: Acyl-CoA synthetases selectivity panel: AACS
- CONDITION DESCRIPTION: human recombinant protein, substrate acetoacetyl, AMP readout by HPLC; read-out: HPLC based activity assays IC50 (UM) AACS
Recorded pIC50 by entry
// pIC50 is dimensionless: -log10 of concentration (M)

Some solved cases for reference:
# COMPOUND, pIC50
rows = [
    ("COc1ccc(N2N=C(C)C(C(=O)Nc3cccc(C(C)(F)F)c3)C2=O)cc1 (stereo not shown) [compound 265]", 3.77),
    ("CC1=NN(c2ccc(C(F)(F)F)cc2)C(=O)C1C(=O)Nc1cccc(C(C)(F)F)c1 (stereo not shown) [compound 264]", 4.28),
    ("COC(=O)c1cccc(N2N=C(C)C(C(=O)Nc3cccc(C(C)(F)F)c3)C2=O)c1 (stereo not shown) [compound 261]", 4.62),
    ("CC1=NN(c2ccccc2)C(=O)C1C(=O)Nc1cccc(-c2ccco2)c1 (stereo not shown) [compound 108]", 4.08),
]

Record COc1ccc(N2N=C(C)C(C(=O)Nc3cccc(-c4ccco4)c3)C2=O)cc1 (stereo not shown) [compound 266] . Reported pIC50: 4.19

Query COC(=O)c1cccc(N2N=C(C)C(C(=O)Nc3cccc(-c4ccco4)c3)C2=O)c1 (stereo not shown) [compound 269] yields pIC50 of 4.72

The compound CC1=NN(c2ccccc2)C(=O)C1C(=O)Nc1cccc(C(C)(F)F)c1 (stereo not shown) [compound 141] showed pIC50 equal to 3.83

###

- TESTED ON: ACSS2 (Homo sapiens, UniProt Q9NR19)
- TEST PROTOCOL: Binding to recombinant ACSS2 protein by Label Free MST
- CONDITION DESCRIPTION: Buffer D (+CoA), 0.01 mM CoA; read-out: Kd [uM] Fluorescence
MEASURED METRIC: Kd
Note to self: number, then unit, no commentary.

In plain terms, COC(=O)c1cccc(N2N=C(C)C(C(=O)Nc3cccc(C(C)(F)F)c3)C2=O)c1 (stereo not shown) has a documented Kd of 0.61 µM

###

- TESTED ON: ACSS2 (Homo sapiens)
- TEST PROTOCOL: biochemical
MEASURED METRIC: IC50

# MOLECULE, IC50
rows = [
    ("CCC(F)(F)c1cccc(NC(=O)C2C(=O)N(c3ccc4ccsc4c3)N=C2C)c1 (stereo not drawn) [compound 485]", "0.01 to 6 nM"),
    ("CCC(F)(F)c1cccc(NC(=O)C2C(=O)N(c3ccc4ccn(CCc5ccccc5)c4c3)N=C2C)c1 (stereo not drawn) [compound 477]", "6 to 100 nM"),
    ("CC1=NN(c2ccc(OC(F)F)cc2)C(=O)C1C(=O)Nc1cccc(C(F)(F)C2CC2)c1 (stereo not drawn) [compound 481]", "0.01 to 6 nM"),
    ("CCC(F)(F)c1cccc(NC(=O)C2C(=O)N(c3ccc4cn[nH]c4c3)N=C2C)c1 (stereo not drawn) [compound 499]", "0.01 to 6 nM"),
    ("CCC(F)(F)c1cccc(NC(=O)C2C(=O)N(c3cnc(Cl)cn3)N=C2C)c1 (stereo not drawn) [compound 489]", "0.01 to 6 nM"),
    ("CCC(F)(F)c1cccc(NC(=O)C2C(=O)N(c3ccc4cnn(S(=O)(=O)c5ccc(C)cc5)c4c3)N=C2C)c1 (stereo not drawn) [compound 487]", "6 to 100 nM"),
    ("CCC(F)(F)c1cccc(NC(=O)C2C(=O)N(c3ccc(OC)cc3C(C)=O)N=C2C)c1 (stereo not drawn) [compound 516]", "6 to 100 nM"),
    ("COc1ccccc1Cc1cc(-c2cccnc2)cc(N2N=C(C)C(C(=O)Nc3cccc(C(C)(F)F)c3)C2=O)c1 (stereo not drawn) [compound 466]", "6 to 100 nM"),
]

Lookup result for CCC(F)(F)c1cccc(NC(=O)C2C(=O)N(c3ccc(OC)c(-c4ccccc4)n3)N=C2C)c1 (stereo not drawn) [compound 498] ; measured IC50: 0.01 to 6 nM

Measured IC50 of CCC(F)(F)c1cccc(NC(=O)C2C(=O)N(c3ccc4cccnc4c3)N=C2C)c1 (stereo not drawn) [compound 474] : 0.01 to 6 nM

The molecule CC1=NN(c2cc(-c3cccnc3)cc(-c3ccc4cc[nH]c4c3)c2)C(=O)C1C(=O)Nc1cccc(C(C)(F)F)c1 (stereo not drawn) [compound 473] showed IC50 equal to 6 to 100 nM

The molecule listed as CC1=NN(c2cc(Br)cc(I)c2)C(=O)C1C(=O)Nc1cccc(C(C)(F)F)c1 (stereo not drawn) [compound 468] has a reported IC50 of 0.01 to 6 nM

Note to self: IC50 recorded for CCC(F)(F)c1cccc(NC(=O)C2C(=O)N(c3ccc(OC)c(-c4cc(C)nc(C)c4)c3)N=C2C)c1 (stereo not drawn) [compound 531] was 0.01 to 6 nM

Item: CCC(F)(F)c1cccc(NC(=O)C2C(=O)N(c3ccc(OC)c(-c4cccc(C)n4)c3)N=C2C)c1 (stereo not drawn) [compound 536] | IC50: 0.01 to 6 nM

Value of IC50 reported for the molecule CCC(F)(F)c1cccc(NC(=O)C2C(=O)N(c3ccc(OC)c(-c4cc(C)ccn4)c3)N=C2C)c1 (stereo not drawn) [compound 537] is 0.01 to 6 nM
